Molecular target: wild type PRC2 (wtPRC2) complex (Homo sapiens (Human), UniProt O75530)
Sequence (O75530 whole entry): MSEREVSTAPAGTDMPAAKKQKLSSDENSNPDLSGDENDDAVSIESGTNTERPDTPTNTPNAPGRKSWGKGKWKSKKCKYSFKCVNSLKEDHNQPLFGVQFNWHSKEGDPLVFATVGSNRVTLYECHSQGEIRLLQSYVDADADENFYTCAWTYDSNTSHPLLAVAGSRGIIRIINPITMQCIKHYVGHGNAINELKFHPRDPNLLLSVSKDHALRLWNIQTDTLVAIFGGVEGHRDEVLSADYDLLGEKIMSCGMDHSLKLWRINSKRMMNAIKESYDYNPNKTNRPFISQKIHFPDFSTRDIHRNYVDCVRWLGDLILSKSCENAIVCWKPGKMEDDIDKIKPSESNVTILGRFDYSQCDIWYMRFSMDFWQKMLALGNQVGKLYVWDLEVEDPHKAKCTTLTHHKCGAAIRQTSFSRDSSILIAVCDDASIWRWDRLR
Sequence (Q15910 whole entry partner): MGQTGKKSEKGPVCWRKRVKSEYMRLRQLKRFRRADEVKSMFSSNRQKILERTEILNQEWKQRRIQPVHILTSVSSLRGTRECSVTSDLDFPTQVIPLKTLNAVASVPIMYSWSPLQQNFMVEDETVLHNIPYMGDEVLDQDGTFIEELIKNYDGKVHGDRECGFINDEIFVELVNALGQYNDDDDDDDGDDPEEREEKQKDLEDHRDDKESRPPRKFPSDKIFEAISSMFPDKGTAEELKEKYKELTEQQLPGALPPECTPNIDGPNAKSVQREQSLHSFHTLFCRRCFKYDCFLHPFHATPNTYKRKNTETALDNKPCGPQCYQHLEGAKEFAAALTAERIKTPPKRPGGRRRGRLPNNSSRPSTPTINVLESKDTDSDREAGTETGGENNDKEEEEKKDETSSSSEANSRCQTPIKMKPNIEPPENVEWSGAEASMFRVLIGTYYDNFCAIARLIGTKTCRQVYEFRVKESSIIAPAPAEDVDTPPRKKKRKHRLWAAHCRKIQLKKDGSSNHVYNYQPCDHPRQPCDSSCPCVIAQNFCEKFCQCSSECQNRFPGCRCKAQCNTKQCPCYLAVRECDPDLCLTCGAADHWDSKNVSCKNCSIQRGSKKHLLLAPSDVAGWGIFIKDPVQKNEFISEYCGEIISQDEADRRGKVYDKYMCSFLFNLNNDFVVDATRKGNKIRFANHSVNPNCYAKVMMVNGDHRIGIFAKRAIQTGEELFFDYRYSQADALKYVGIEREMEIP
Sequence (Q15022 whole entry partner): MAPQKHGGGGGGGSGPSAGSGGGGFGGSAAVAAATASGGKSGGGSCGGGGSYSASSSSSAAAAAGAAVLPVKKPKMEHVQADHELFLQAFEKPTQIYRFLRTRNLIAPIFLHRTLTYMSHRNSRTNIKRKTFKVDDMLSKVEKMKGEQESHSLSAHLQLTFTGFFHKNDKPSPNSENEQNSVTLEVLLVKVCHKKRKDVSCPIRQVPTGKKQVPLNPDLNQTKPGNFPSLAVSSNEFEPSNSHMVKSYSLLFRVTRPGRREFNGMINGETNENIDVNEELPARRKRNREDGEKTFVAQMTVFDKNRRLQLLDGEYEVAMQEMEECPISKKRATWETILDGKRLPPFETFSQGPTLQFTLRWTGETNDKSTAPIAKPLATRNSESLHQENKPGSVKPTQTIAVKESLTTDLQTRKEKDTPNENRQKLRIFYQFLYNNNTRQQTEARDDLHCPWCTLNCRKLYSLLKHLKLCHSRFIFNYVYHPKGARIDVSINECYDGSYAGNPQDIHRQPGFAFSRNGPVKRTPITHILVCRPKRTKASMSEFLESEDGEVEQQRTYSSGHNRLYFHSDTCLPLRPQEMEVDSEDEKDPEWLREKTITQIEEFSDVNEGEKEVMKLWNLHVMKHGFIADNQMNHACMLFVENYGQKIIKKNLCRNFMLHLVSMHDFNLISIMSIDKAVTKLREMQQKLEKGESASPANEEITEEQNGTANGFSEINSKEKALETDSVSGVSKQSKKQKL
Assay: EED LC-MS assay
Settings: read-out: (b) IC50 EED LC-MS Qualified
pIC50: −log10 of the molar value.
Catalogue of compounds with associated pIC50
readout-type: pIC50

Cn1cc(-c2cnc(NCc3c(F)ccc4c3CCO4)n3cnnc23)c(C(F)(F)F)n1    7.92
Cc1nn(C(C)C)c(C)c1-c1cnc(NCc2c(F)ccc3c2CCO3)n2cnnc12    7.67
O=C(c1ccc(-c2cnc(NCc3cccc4c3CCO4)n3cnnc23)cn1)N1CCOCC1    7.44
CS(=O)(=O)c1ccc(-c2cnc(NCc3cccc4c3CCO4)n3cnnc23)c(F)c1    7.77
Cc1c(-c2cnc(NCc3c(F)ccc4c3CCO4)n3cnnc23)cnn1C(C)C    8.42
OCCOc1ccc(-c2cnc(NCc3cccc4c3CCO4)n3cnnc23)cc1    7.46
Cc1nc(OC2CC2)ncc1-c1cnc(NCc2c(F)ccc3c2CCO3)n2cnnc12    7.97
Fc1ccncc1-c1cnc(NCc2c(F)ccc3c2CCO3)n2cnnc12    8.31
CN(C)C(=O)c1ccc(-c2cnc(NCc3c(F)ccc4c3CCO4)n3cnnc23)cc1    7.50
Fc1ccc2c(c1CNc1ncc(F)c3nncn13)CCO2    7.19
CC(c1ccc(-c2cnc(NCc3cccc4c3CCO4)n3cnnc23)cc1)N1CCCC1 (stereo not shown)    7.89
Cc1cc(-c2cnc(NCc3cccc4c3CCO4)n3cnnc23)cnc1N1CCNC(=O)C1    7.49
Cc1ncccc1-c1c(C)nc(NCc2c(F)ccc3c2CCO3)n2cnnc12    6.47
COc1ccc(-c2cnc(NCc3cccc4c3CCO4)n3cnnc23)cn1    7.59
NC(=O)c1ccccc1-c1cnc(NCc2c(F)ccc3c2CCO3)n2cnnc12    7.36
Cc1cn(-c2cnc(NCc3c(F)ccc4c3CCO4)n3cnnc23)c(C)n1    7.63
COCCc1ccc(-c2cnc(NCc3cccc4c3CCO4)n3cnnc23)cn1    7.57
CS(=O)(=O)Nc1ccc(-c2cnc(NCc3cccc4c3CCO4)n3cnnc23)cc1    7.72
CS(=O)(=O)c1ccc(-c2cnc(NCc3c(F)ccc4c3CCO4)n3cnnc23)cc1    7.68

====

Values of IC50 reported for EED (1-441)-His protein (Homo sapiens (Human)) appear below.
readout-type: IC50

Cc1cn(-c2cnc(NCc3c(F)ccc4c3CCO4)n3cnnc23)cn1    3.9 nM
COc1cc(C)c(-c2cnc(NCc3c(F)ccc4c3CCO4)n3cnnc23)cn1    4.8 nM
Cc1ccc(-c2cnc(NCc3c(F)ccc4c3CCO4)n3cnnc23)c(C(F)F)n1    5.9 nM
